Ref: patent US20260241012A1

target: N-terminal HiBiT tagged BCL6 (Homo sapiens, UniProt P41182); construct: expressed in transfected cells; host or cells: HT1080 (ATCC CCL-121), stably transduced with lentivirus pLV-UBC-N-HiBiT-BCL6-PGK-puro; test: HiBiT based degradation assay; format: cell-based; details: HT1080 cells expressing N-terminal HiBiT tagged BCL6; 5 hours of incubation; BCL6 degradation normalized with DMSO control

MOLECULE	Ymin (5 hr)
CNC(=O)COc1cc2cc(Nc3nc(N4CC5(CC[C@@H](Nc6ccc7c(C8CCC(=O)NC8=O)nn(C)c7c6)[C@@H](C)C5)C4)ncc3Cl)cnc2n(C(C)C)c1=O (relative stereo) [Compound 180a]	+++ (30% ≤ Ymin < 50%)
CNC(=O)COc1cc2cc(Nc3nc(N4CCC(CN5CC6CC(C5)N6c5cccc6c(C7CCC(=O)NC7=O)nn(C)c56)CC4)ncc3Cl)cnc2n(C(C)C)c1=O (stereo not drawn)	+++ (30% ≤ Ymin < 50%)

----------
# DC50 annotations
Target: N-terminal HiBiT tagged BCL6 (Homo sapiens, UniProt P41182)
Construct: expressed in transfected cells; host or cells: HT1080 (ATCC CCL-121), stably transduced with lentivirus pLV-UBC-N-HiBiT-BCL6-PGK-puro
Experiment: HiBiT based degradation assay
Format: cell-based
Details: HT1080 cells expressing N-terminal HiBiT tagged BCL6; 5 hours of incubation; four-parameter logistic model; read-out: EC50 (5 hr)
Description: Human BCL6 protein coding open reading frame fused with N-terminal HiBiT coding sequence was synthesized from Integrated DNA Technologies (IDT). […] HT1080 cells expressing N-terminal HiBiT tagged BCL6 were dispensed into a 384-well plate pre-spotted with compounds at varying concentrations. […] After incubation, luminescence was read on a PHERAstar FSX Plate Reader (BMG). […]

Example compounds with recorded DC50:
COMPOUND	DC50
CNC(=O)COc1cc2cc(Nc3nc(N4CCC(CN5CCN(c6cccc7c(C8CCC(=O)NC8=O)nn(C)c67)C[C@@H]5C)CC4)ncc3F)cnc2n(C(C)C)c1=O (stereo partly shown) [Compound 188b]	10 to 100 nM
CNC(=O)COc1cc2cc(Nc3nc(N4CC5(CC[C@H](Nc6ccc7c(C8CCC(=O)NC8=O)nn(C)c7c6)[C@@H](C)C5)C4)ncc3Cl)cnc2n(C(C)C)c1=O (relative stereo) [Compound 180c]	< 10 nM
CNC(=O)COc1cc2cc(Nc3nc(N4CCN(CC5CCN(c6cccc7c(C8CCC(=O)NC8=O)nn(C)c67)CC5)[C@@H](C(F)(F)F)C4)ncc3Cl)cnc2n(C(C)C)c1=O (stereo partly shown) [Compound 163a]	100 to 1000 nM
CNC(=O)COc1cc2cc(Nc3nc(N4CC[C@H](CN5CCN(c6ccc7c(C8CCC(=O)NC8=O)nn(C)c7c6)CC5)[C@@H](C)C4)ncc3Cl)cnc2n(C(C)C)c1=O (stereo partly shown) [Compound 176b]	< 10 nM
CNC(=O)COc1cc2cc(Nc3nc(N4CC5(CC[C@@H](Nc6ccc7c(C8CCC(=O)NC8=O)nn(C)c7c6)[C@@H](C)C5)C4)ncc3Cl)cnc2n(C(C)C)c1=O (relative stereo) [Compound 180a]	10 to 100 nM
CNC(=O)COc1cc2cc(Nc3nc(N4CC[C@@H](CN5CCN(c6ccc7c(C8CCC(=O)NC8=O)nn(C)c7c6)CC5)C4)ncc3Cl)cnc2n(C(C)C)c1=O (stereo partly shown) [Compound 218a]	< 10 nM

DC50 reading for CNC(=O)COc1cc2cc(Nc3nc(N4CCN(CC5CCN(c6cccc7c(C8CCC(=O)NC8=O)nn(C)c67)CC5)C[C@@H]4CO)ncc3Cl)cnc2n(C(C)C)c1=O (stereo partly shown) [Compound 155b] : < 10 nM

# compound CNC(=O)COc1cc2cc(Nc3nc(N4CC5(CC[C@@H](Nc6ccc7c(C8CCC(=O)NC8=O)nn(C)c7c6)[C@@H](C)C5)C4)ncc3Cl)cnc2n(C)c1=O (single isomer, unassigned) [Compound 156c] ; its DC50 = < 10 nM

DC50 for CNC(=O)COc1cc2cc(Nc3nc(N4CCCN(CC5CCN(c6ccc7c(C8CCC(=O)NC8=O)nn(C)c7c6)CC5)CC4)ncc3Cl)cnc2n(C)c1=O (stereo not shown) is < 10 nM

// CNC(=O)COc1cc2cc(Nc3nc(N4CCC([C@@](C)(O)C5CCN(c6cccc7c(C8CCC(=O)NC8=O)nn(C)c67)CC5)CC4)ncc3Cl)cnc2n(C(C)C)c1=O (single isomer, unassigned) [Compound 194a] : DC50 value = 10 to 100 nM

----------
target: N-terminal HiBiT tagged BCL6 (Homo sapiens, UniProt P41182); construct: expressed in transfected cells; host or cells: HT1080 (ATCC CCL-121), stably transduced with lentivirus pLV-UBC-N-HiBiT-BCL6-PGK-puro; experiment: HiBiT based degradation assay; assay type: cell-based; conditions: HT1080 cells expressing N-terminal HiBiT tagged BCL6; 5 hours of incubation; BCL6 degradation normalized with DMSO control
ASSAY ENDPOINT: Ymin (5 hr)

COMPOUND	RECORDED MEASUREMENT
CNC(=O)COc1cc2cc(Nc3nc(N4CC[C@@H](CNc5ccc6c(C7CCC(=O)NC7=O)nn(C)c6c5)C4)ncc3Cl)cnc2n(C)c1=O (some centres unmarked) [Compound 123b]	++++ (Ymin < 30%)
CNC(=O)COc1cc2cc(Nc3nc(N4CCN(CC5CCN(c6cccc7c(C8CCC(=O)NC8=O)nn(C)c67)CC5)[C@@H](C(F)(F)F)C4)ncc3Cl)cnc2n(C)c1=O (some centres unmarked) [Compound 141a]	+++ (30% ≤ Ymin < 50%)
CNC(=O)COc1cc2cc(Nc3nc(N4CCN(C(=O)N5CCC(c6cccc7c(C8CCC(=O)NC8=O)nn(C)c67)CC5)CC4)ncc3Cl)cnc2n(C(C)C)c1=O (centres unmarked)	+++ (30% ≤ Ymin < 50%)
CNC(=O)COc1cc2cc(Nc3nc(N4CC5(CC[C@@H](Oc6ccc7c(C8CCC(=O)NC8=O)nn(C)c7c6)[C@@H](C)C5)C4)ncc3Cl)cnc2n(C(C)C)c1=O (relative stereo) [Compound 185b]	++++ (Ymin < 30%)

----------
target: N-terminal HiBiT tagged BCL6 (Homo sapiens, UniProt P41182); construct: expressed in transfected cells; host or cells: HT1080 (ATCC CCL-121), stably transduced with lentivirus pLV-UBC-N-HiBiT-BCL6-PGK-puro; assay: HiBiT based degradation assay; format: cell-based; conditions: HT1080 cells expressing N-terminal HiBiT tagged BCL6; 5 hours of incubation; BCL6 degradation normalized with DMSO control
ASSAY ENDPOINT: Ymin (5 hr)

Sample answers from the record:
COMPOUND	TESTED SYSTEM	RECORDED MEASUREMENT
CNC(=O)COc1cc2cc(Nc3nc(N4CC5(CC[C@@H](Nc6ccc7c(C8CCC(=O)NC8=O)nn(C)c7c6)[C@@H](C)C5)C4)ncc3Cl)cnc2n(C)c1=O (single isomer, unassigned) [Compound 156c]	N-terminal HiBiT tagged BCL6 (Homo sapiens, UniProt P41182)	++++ (Ymin < 30%)
CNC(=O)COc1cc2cc(Nc3nc(N4CCN(CC5CCN(c6cccc7c(C8CCC(=O)NC8=O)nn(C)c67)CC5(F)F)CC4)ncc3Cl)cnc2n(C(C)C)c1=O (centres unmarked)	N-terminal HiBiT tagged BCL6 (Homo sapiens, UniProt P41182)	++++ (Ymin < 30%)
CNC(=O)COc1cc2cc(Nc3nc(N4CC5(CC[C@H](Nc6ccc7c(C8CCC(=O)NC8=O)nn(C)c7c6)[C@@H](C)C5)C4)ncc3Cl)cnc2n(C(C)C)c1=O (relative stereo) [Compound 180c]	N-terminal HiBiT tagged BCL6 (Homo sapiens, UniProt P41182)	++++ (Ymin < 30%)
CNC(=O)COc1cc2cc(Nc3nc(N4CCC(CN5CCN(c6cccc7c(C8CCC(=O)NC8=O)nn(C)c67)C[C@H]5CO)CC4)ncc3Cl)cnc2n(C(C)C)c1=O (some centres unmarked) [Compound 231a]	N-terminal HiBiT tagged BCL6 (Homo sapiens, UniProt P41182)	++++ (Ymin < 30%)

# compound CNC(=O)COc1cc2cc(Nc3cc(N4CCN(CC5CCN(c6cccc7c(C8CCC(=O)NC8=O)nn(C)c67)CC5)CC4)ncc3Cl)cnc2n(C)c1=O (centres unmarked) ; its Ymin (5 hr) = ++++ (Ymin < 30%)

Query CNC(=O)COc1cc2cc(Nc3nc(N4C[C@@H]5C[C@H]4CN5CC4CCN(c5cccc6c(C7CCC(=O)NC7=O)nn(C)c56)CC4)ncc3Cl)cnc2n(C(C)C)c1=O (some centres unmarked) [Compound 174b] yields Ymin (5 hr) of +++ (30% ≤ Ymin < 50%)

CNC(=O)COc1cc2cc(Nc3nc(N4CCN(CC5CCN(c6cccc7c6C(=O)N(C6CCC(=O)NC6=O)C7=O)CC5)CC4)ncc3Cl)cnc2n(C)c1=O (centres unmarked) has a reported Ymin (5 hr) of ++++ (Ymin < 30%)

Recorded Ymin (5 hr) (compound CNC(=O)COc1cc2cc(Nc3nc(N4CCC(CN5CCN(c6cccc7c(C8CCC(=O)NC8=O)nn(C)c67)[C@@H](C)C5)CC4)ncc3Cl)cnc2n(C(C)C)c1=O (some centres unmarked) [Compound 169a] ): ++++ (Ymin < 30%)
